# target_or_test_system: T1, Human TIGIT-Fc (human, UniProt Q495A1 22-141)
# T1 construct: bought (Creative Biomart); also called TIGIT-Fc antigen; TIGIT-Fc fusion antigen; not shown: Fc part
# T1 sequence (looked up): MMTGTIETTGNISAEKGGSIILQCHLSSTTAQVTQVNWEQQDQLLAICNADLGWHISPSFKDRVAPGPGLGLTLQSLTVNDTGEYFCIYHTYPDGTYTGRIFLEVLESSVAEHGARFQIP
# protocol: ForteBio BLI, IgG KD, avid
Consider the cut-off 0.4 nM. If the recorded Kd is strictly smaller, the label is Satisfied; if not, the label is Not satisfied.

Enquiry: Regarding anti-TIGIT antibody clone 29478 (IgG) (antibody, V domains shown) VH: EVQLVESGGGVVQPGRSLRLSCAASGFTFESYGMVWVRQAPGKGLEWVASILYDGSNRYYADSVKGRFTVSRDNSKNTLYLQMNSLRAEDTAVYYCARVSYYYDSVELRWAEYFQHWGQGTLVTVSS VL: EIVLTQSPATLSLSPGERATLSCRASQSVSSYLAWYQQKPGQAPRLLIYDASKRATGIPARFSGSGSGTDFTLTISSLEPEDFAVYYCQQVHNFPLTFGGGTKVEIK , kindly confirm whether its Kd is beneath 0.4 nM.
Return: Not satisfied

Enquiry: Regarding anti-TIGIT antibody clone 26486 (IgG) (antibody, V domains shown, parent clone) VH: QVQLQESGPGLVKPSETLSLTCAVSGYSISSGYYWAWIRQPPGKGLEWIGSIYHSGSTYYNPSLKSRVTISVDTSKNQFSLKLSSVTAADTAVYYCAIEGANYYDFGYVAFDIWGQGTMVTVSS VL: EIVMTQSPATLSVSPGERATLSCRASQSVSSNLAWYQQKPGQAPRLLIYGASTRATGIPARFSGSGSGTEFTLTISSLQSEDFAVYYCQQSPPWPRTFGGGTKVEIK , kindly confirm whether its Kd is beneath 0.4 nM.
Return: Not satisfied

Enquiry: Regarding anti-TIGIT antibody clone 29527 (IgG) (antibody, V domains shown) VH: QVQLVESGGGVVQPGRSLRLSCAASGFTFSSSYMHWVRQAPGKGLEWVAVIGADGSNKYYADSVEGRFTISRDNSKNTLYLQMNSLRAEDTALYYCAKPVPRRRGLDVWGQGTMVTVSS VL: DIQLTQSPSSVSASVGDRVTITCRASQGISSWLAWYQQKPGKAPKLLIYGASSLQSGVPSRFSGSGSGTDFTLTISSLQPEDFATYYCQQAFYLPWTFGGGTKVEIK , kindly confirm whether its Kd is beneath 0.4 nM.
Return: Satisfied

Enquiry: Regarding anti-TIGIT antibody clone 26518 (IgG) (antibody, V domains shown, parent clone) VH: EVQLVESGGGLVQPGGSLRLSCAASGFTFSSYGMSWVRQAPGKGLEWVANIKQDGSEKYYVDSVKGRFTISRDNAKNSLYLQMNSLRAEDTAVYYCARVSYYYDSSKLRWAEYFQHWGQGTLVTVSS VL: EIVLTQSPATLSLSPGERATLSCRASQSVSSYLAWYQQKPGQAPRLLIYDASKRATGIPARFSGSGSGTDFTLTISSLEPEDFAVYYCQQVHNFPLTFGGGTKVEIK , kindly confirm whether its Kd is beneath 0.4 nM.
Return: Not satisfied

Enquiry: Regarding anti-TIGIT antibody clone 29499 (IgG) (antibody, V domains shown) VH: QLQLQESGPGLVKPSETLSLTCTVSGGSISSSRYYWAWIRQPPGKGLEWIGSIGTSGSTYYNPSLKSRVTISVDTSKNQFSLKLSSVTATDTAVYYCAIEGANFRDFGYVAFDIWGQGTMVTVSS VL: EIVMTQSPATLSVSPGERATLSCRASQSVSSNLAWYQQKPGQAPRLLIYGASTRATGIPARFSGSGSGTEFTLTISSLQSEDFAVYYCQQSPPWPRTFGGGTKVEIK , kindly confirm whether its Kd is beneath 0.4 nM.
Return: Satisfied

Enquiry: Regarding anti-TIGIT antibody clone 29520 (IgG) (antibody, V domains shown) VH: QVQLVESGGGLVQPGRSLRLSCAASGFTFRDYAMHWVRQAPGKGLEWVSGITWNSGLIGYADSVKGRFTISRDNAKNSLYLQMNSLRAEDTALYYCAKPVPRLRGLDVWGQGTMVTVSS VL: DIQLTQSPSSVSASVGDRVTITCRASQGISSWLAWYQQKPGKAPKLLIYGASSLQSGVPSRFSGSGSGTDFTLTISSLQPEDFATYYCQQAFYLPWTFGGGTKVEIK , kindly confirm whether its Kd is beneath 0.4 nM.
Return: Satisfied

Enquiry: Regarding anti-TIGIT antibody clone 29494 (IgG) (antibody, V domains shown) VH: QVQLQESGPGLVKPSETLSLTCTVSGGSISSGSYYLAWIRQPPGKGLEWIGSIFRSGSTYYNPSLESRVTISVDTSKNQFSLKLSSVTAADTAVYYCAIEGANFKDFGYVAFDIWGQGTMVTVSS VL: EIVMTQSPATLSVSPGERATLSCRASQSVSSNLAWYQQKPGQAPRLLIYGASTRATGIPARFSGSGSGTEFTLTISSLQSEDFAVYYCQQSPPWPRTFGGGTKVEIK , kindly confirm whether its Kd is beneath 0.4 nM.
Return: Satisfied

Enquiry: Regarding anti-TIGIT antibody clone 26493 (IgG) (antibody, V domains shown, parent clone; also called surrogate anti-TIGIT antagonistic antibody) VH: EVQLVESGGGLVQPGRSLRLSCAASGFTFGDYAMHWVRQAPGKGLEWVSGITWNSGSIGYADSVKGRFTISRDNAKNSLYLQMNSLRAEDTALYYCAKPVPKSRGLDVWGQGTMVTVSS VL: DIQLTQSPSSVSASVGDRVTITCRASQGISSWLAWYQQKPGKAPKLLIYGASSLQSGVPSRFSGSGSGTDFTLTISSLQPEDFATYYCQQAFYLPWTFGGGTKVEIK , kindly confirm whether its Kd is beneath 0.4 nM.
Return: Not satisfied

Enquiry: Regarding anti-TIGIT antibody clone 29523 (IgG) (antibody, V domains shown) VH: EVQLVESGGGVVQPGRSLRLSCAASGFTFGSYYMHWVRQAPGKGLEWVAVIWPDGSNKLYADSVKGRFTISRDNSKNTLYLQMNSLRAEDTALYYCAKPVPKSRALDVWGQGTMVTVSS VL: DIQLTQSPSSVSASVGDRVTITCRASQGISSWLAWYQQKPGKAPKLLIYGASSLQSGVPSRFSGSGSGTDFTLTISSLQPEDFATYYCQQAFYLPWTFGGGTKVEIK , kindly confirm whether its Kd is beneath 0.4 nM.
Return: Not satisfied
